# Target Or Test System: Platelet-derived growth factor receptor beta (Homo sapiens);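 further: reported value is the mean percent inhibition of the kinase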
# Condition Info: at 0.1 µM
Measurement Name: inhibition (%)
The figure you give is taken to be in %; do not add the unit.

Field: example entries. Status: answers known.
# Structure Notation, Target Or Test System, inhibition / %
measured = [
    ("Fc1cccc(COc2ccc(Nc3ncnc4cc(-c5ccc[nH]5)sc34)cc2Cl)c1", "Platelet-derived growth factor receptor beta (Homo sapiens)", 3.02),
    ("CN(C)c1cc2c(Nc3ccc4nc(Cc5ccccc5)[nH]c4c3)ncnc2cn1", "Platelet-derived growth factor receptor beta (Homo sapiens)", 5.76),
    ("COc1cc2c(cc1Nc1nc(N3CCc4ccccc43)c3cc[nH]c3n1)N(C(=O)CN(C)C)CC2", "Platelet-derived growth factor receptor beta (Homo sapiens)", 1.46),
    ("COc1ccc(-c2coc3ncnc(N)c23)cc1", "Platelet-derived growth factor receptor beta (Homo sapiens)", 3.23),
]

Endpoint output: inhibition of `CCCN1CCC=C(c2ccc(Nc3nc(Nc4ccccc4C(N)=O)c4cc[nH]c4n3)c(C)c2)C1` . Value?
8.75

# repeat for `Nc1nc(-c2ccccn2)c(-c2ccc3ncccc3n2)s1`
6.46

---

# Target Or Test System: Protein-tyrosine kinase 2-beta (Homo sapiens)
# Condition Info: at 1 µM
Listed compounds paired with reported inhibition
Please respond with the number in % and leave the unit unwritten.

Below, 3 compounds whose answers are already recorded.
# Compound, Unit String, Measured Number
rows = [
    ("Cc1nnc(-c2ccc(C)c(-c3ccc(C(=O)Nc4cccc(C#N)c4)cc3)c2)o1", "%", 6.48),
    ("COc1cc2ncn(-c3cc(O[C@@H](C)c4ccccc4Cl)c(C(N)=O)s3)c2cc1OC", "%", 14),
    ("COc1ccccc1Nc1ncc(-c2ccccc2)o1", "%", 11.1),
]

Test system Protein-tyrosine kinase 2-beta (Homo sapiens); read-out inhibition; what value for `CS(=O)(=O)CCNCc1nc(-c2ccc3ncnc(Nc4ccc(F)c(Cl)c4)c3c2)cs1` ?;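 further: values are the mean percent inhibition of PYK2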
1.64

Same again, this time with `COc1cc(C=NNc2ncnc3c2cnn3-c2ccccc2)ccc1O`
14.2

Entry to check: `CCn1c(-c2nonc2N)nc2ccncc21`
7.52

Entry to check: `Cc1ccc(NC(=O)c2ccnc(N3CCCC3)c2)cc1-c1ccc(C(=O)NCC2CC2)cc1`
9.43

---

# Target Or Test System: Cyclin-dependent kinase 2 (Homo sapiens) (UniProt P24941);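 further: mean inhibition of the CDK2–cyclin A kinase complex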
# Condition Info: at 1 µM
Measurement Name: inhibition (%)
Write it as a number; the unit % goes unstated.

# Compound, inhibition, %
records = [
    ("COc1cccc(-n2ncc3c(N/N=C/c4cccc(F)c4)ncnc32)c1", 39.1),
    ("CN1CCC(C(=O)Nc2n[nH]c3nnc(-c4ccccc4)cc23)CC1", 5.99),
    ("CS(=O)(=O)Nc1ccc(N/C=C2\\C(=O)Nc3ccccc32)cc1", 18.1),
    ("COC(=O)Nc1nc2cc(Oc3cccc(NC(=O)Nc4cc(C(F)(F)F)ccc4F)c3)ccc2[nH]1", -0.89),
    ("Cc1cc(O)cc(C)c1/C=C/c1cncc(-c2nn[nH]n2)c1", 2.36),
    ("Cc1ccc(C(=O)NC2CCCCC2)cc1-c1ccc(C(=O)NCC2CC2)cc1", 7.52),
    ("CC1=C(C(=O)Nc2ccc3[nH]ncc3c2)C(c2ccc(Cl)c(Cl)c2)CC(=O)N1 (centres undefined)", 4.04),
    ("Fc1cccc(COc2ccc(Nc3ncnc4cc(-c5ccc[nH]5)sc34)cc2Cl)c1", -1.57),
]

For the next question, use this compound.
Reported inhibition for `Nc1ncnc2occ(-c3ccc(NC(=O)Nc4cc(C(F)(F)F)cc(C(F)(F)F)c4)cc3)c12` : what is it?
2.88
